Assignment: determine reported yeast fitness for the given variants.
B1: tRNA (parent)
chain: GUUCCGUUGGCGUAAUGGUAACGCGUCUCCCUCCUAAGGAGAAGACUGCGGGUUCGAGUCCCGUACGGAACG

Variants of: B1
Assay: yeast fitness relative to wild type (ratio to wild type); higher = fitter; tRNA-Arg(CCU), competitive growth, 37 C, YPD
Variants at the floor of the assay were thinned out.
// keep it numeric: no unit symbol after the value

What value of yeast fitness has been reported for the following variant? GUUCCGUUGGCGUAAUGGUCACGCGUCUCCCUCCUACGGAGAAGACUGCGGGUUCGAGUCCCGUACGGAACG
0.762

// same read-out, input: GUUCCGUUGGCGUAAUGGUAACGCGUCUCUCUCCUUAGGAGAAGACUGCGGGUUCGAGUCCGAUACGGAACG
0.542

// same read-out, input: GUUCUGUUGGCGUAAUGGUAGCGCGUCUCCCUCCUAAGGAGUAGACUGCGGGUUCGAAUCCCGUAUGGAACG
0.706

// same read-out, input: GUUCCGUUGGCGUAAUGGUAACGCGUCUCCCUCCUAAGGAGAAGACAACGGGUUCGAGUCCCGUACGGAACG
0.867

// same read-out, input: GUUACGUUGGCGUAAUGGUAACGCGUCUCCCUCCUAAGGAGAAGACUGCGCGUUCGAGUCCCGUACGGAACG
0.547

// same read-out, input: GUUCCGUUGGCGUAAUGGUAACGCGUCUCCCUCCUAAGGAGAAGUCUGCGGAUUCGAGUCCCGUACGGAUCG
0.574

// same read-out, input: GUUCCGUAGGCGUAAUGGUUACGCGUCUCCCUCCUAAGGAGAAGACUGCGGGUUCGAGUCCCGUACGGACCG
0.56

// same read-out, input: GUUCCGUUCGCGUAGUGGUAACGCGUCUCCCUCCUAAGGAGAAGACUGCGGGUUCGACUCCCGUACGGAACG
0.564

// same read-out, input: GUUACGUUGGCGUAAUGGUAACCUGUCUCCCUCCUAAGGAGAAGACUGCGGGUUCGAGUCCCGUGCGGAACG
0.556

// same read-out, input: GUUACGUUGGCGUAAUGGUAACGCGUCGCCCUCCUAAGGAGAAGACUGCGGGUUCGAGUCCCGUACGGAACG
0.681

// same read-out, input: GUCCCGUUGGCGUAAUGGUAACGCGUCUCCAUCCUAAGGAGAAGACUGCGGGUUCGAGUCCCGUACGGAACG
0.845

// same read-out, input: GUUCCGUUGGCGUAAUGGUAACGCGUCUCCCUCCUAAGGAGAAGAGUACGGAUUCGAGUCCCGUACGGAACG
0.913

// same read-out, input: GUUCCGUUGGCGUAAUGGUAACGCGUCUCCCUCCUAAGGCGGAGACCGCGGGUUAGAGUCCCGUACGGAACG
0.587

// same read-out, input: GUUCCGUUGGCGUAAUGGUAACGCGUCUCCCUCCUAAGGAGAAGACUGCCGAUUCGAGUCGCGUACGGAACG
0.722

// same read-out, input: GUUGCGUUGGCGUAAUGGUAACGCGUCUACCUGCUAAGGAGAAGCCUGCGGGUUCGAGUCCCGUACGGAACG
0.588

// same read-out, input: GUUCCGUUGGCGUAAUGGUAACCCGUCUCCCUCUUAAGGAGAAGACAGCGGGUUCGACUCCCGUACUGAACG
0.533

// same read-out, input: GCUCCGUUGGCGUAAUGGUAACGCGUGUCCCUCCUAAGGAGAAGAUUGCGGGUUCGAGUCCCGUACGGAACG
0.705

// same read-out, input: GUUCCGUUGGCGUAAUGGUGACGAGUCUCCCUCCUAAGGAGUAGACUGCGGGUUCGAGUCCCGUACGGAACG
0.546

// same read-out, input: GCUCCGUUGGCGUAAUGGUAACGCGCCUCCCUCCUAAGGAGAAGAUUGCGGGUUCGAGUCCCGUACGGAACG
0.683

// same read-out, input: GUUCCGUUGGCGUGAUGGUAACGUGUCUCCCUCCUAAGGAGAAGACUGCGGGUUCGAGUCCCGUUCGGAACG
0.54

// same read-out, input: GUUCCGUUGGCGUACUGGUAACGCGUCUUCUUCCUAAGGAGAAGACUGCGGGUUCGAGUCCCGUACCGAACG
0.591

// same read-out, input: GUUCCGUUGGCGUAAUGGUAACGCGUCUCCCACCUAAGGAGAAGACUGCGGGUUCGAGUCCCGGACGGAACG
0.751

// same read-out, input: GUUCCGUUGGCGUAAUGGUAAGGCGUCUACCUCCUAAGGAGAAGUCUGCGGGUUCGAGUCCCGUACGGAACG
0.615
